Data provenance: PubChem BioAssay

Molecular target: PEG-3 (UniProt Q6IN02)
Sequence (Q6IN02 whole entry, looked up): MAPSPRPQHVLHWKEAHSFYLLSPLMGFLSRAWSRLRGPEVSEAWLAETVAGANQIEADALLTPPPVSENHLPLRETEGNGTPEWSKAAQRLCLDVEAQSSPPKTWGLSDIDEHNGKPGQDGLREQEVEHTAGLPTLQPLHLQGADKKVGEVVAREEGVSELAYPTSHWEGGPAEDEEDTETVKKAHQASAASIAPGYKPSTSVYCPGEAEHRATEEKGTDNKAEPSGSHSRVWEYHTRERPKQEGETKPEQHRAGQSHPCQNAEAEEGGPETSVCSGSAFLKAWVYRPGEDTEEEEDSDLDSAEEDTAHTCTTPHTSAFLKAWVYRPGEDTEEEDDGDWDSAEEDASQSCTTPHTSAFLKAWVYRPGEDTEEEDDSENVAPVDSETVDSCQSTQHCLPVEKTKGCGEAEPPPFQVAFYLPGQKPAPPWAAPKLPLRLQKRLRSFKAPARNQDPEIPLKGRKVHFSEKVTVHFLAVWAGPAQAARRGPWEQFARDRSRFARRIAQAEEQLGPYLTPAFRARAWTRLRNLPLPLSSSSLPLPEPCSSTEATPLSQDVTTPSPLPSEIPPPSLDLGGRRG
Assay: Peg3 promoter luciferase inhibitors, potency, dose response, cell-based, HeLa, CREF/GAPDH counter-screen panel (AID 624167)
Details: CREF/GAPDH counter-screens; HeLa PEG-Prom luciferase reporter, overnight, run 1, dose range 1, at 100 µM (top of the series) unless noted
Measured inhibition, listed per entry.
Please state the figure in %; there is no need to write the unit.

                                   compound  reading_unit  reported_measurement
0  CCCCC(=O)NC(c1ccccc1OC)c1ccc2cccnc2c1O (stereo unspecified)             %                  67.7

[in] State its inhibition on PEG-3 (UniProt Q6IN02): COC(CNC(=O)c1ccc2c3c(onc13)-c1ccccc1C2=O)OC
[out] 102

[in] Reported inhibition for PEG-3 (UniProt Q6IN02), given COc1ccc(/C=N/Nc2nncc3ccccc23)cc1 ?
[out] 92.6

[in] I'm curious: which inhibition was measured for CC(=O)NC(c1ccc(Cl)cc1)c1ccc2cccnc2c1O (stereo unspecified) tested on PEG-3 (UniProt Q6IN02)?
[out] 97.5

[in] Provide value of inhibition for this record tested with PEG-3 (UniProt Q6IN02): Cc1ccccc1NC(=O)Nc1nc(C(N)C2CCCCC2)cs1 (stereo unspecified)
[out] 98.9

[in] Kindly state the measured inhibition obtained for COc1cc(CNCCCN2CCOCC2)cc(Br)c1OCc1ccc(Cl)cc1 with PEG-3 (UniProt Q6IN02).
[out] 99.2

* * *

Molecular target: Tumor necrosis factor receptor superfamily member 10B (Homo sapiens)
Assay: caspase-8 TRAIL sensitization, hit retest, confirmation, cell-based, NB7+caspase-8, with/without TRAIL, luminescence panel (AID 651596)
Settings: NB7 neuroblastoma + caspase-8, TRAIL sensitization, luminescence viability, with TRAIL, mean of runs, at 10 µM, stronger effect = higher value
Assay Endpoint: activity (%)
Please give a number only; it is taken to be in %.

Worked cases, answers included:
In [3]: df
Out[3]:
                                   molecule                            assayed_target  reported_measurement
0  CC(=O)Nc1ccc(NC(=O)c2nc(S(=O)(=O)Cc3cccc(C)c3)ncc2Cl)cc1  Tumor necrosis factor receptor superfamily member 10B (Homo sapiens)                  56.4
1  O=c1c2cc(-c3ccccc3)sc2nc2n1N=C(c1cccs1)CS2  Tumor necrosis factor receptor superfamily member 10B (Homo sapiens)                  63.5
2              Cc1cccnc1NC(=S)NC(=O)c1cccs1  Tumor necrosis factor receptor superfamily member 10B (Homo sapiens)                  73.2
3  Cc1cc(C(=O)COC(=O)c2ccccc2O)c(C)n1CC1CCCO1 (stereo unspecified)  Tumor necrosis factor receptor superfamily member 10B (Homo sapiens)                  91.2
4  CN(C)CCCN(C(=O)c1ccc(C(=O)c2ccccc2)cc1)c1nc2cc3c(cc2s1)OCO3  Tumor necrosis factor receptor superfamily member 10B (Homo sapiens)                  46.7

[in] Item CCOc1ccc(/C=N/NC(=O)c2ccccc2NC(=O)c2ccc(OC)cc2)cc1 has what recorded activity?
[out] 72.6

[in] Look up activity for this molecule: O=C(Nc1ccc2c(c1)OCCO2)c1ccccc1
[out] 53.7

[in] Request the reported activity associated with CC(=O)Oc1ccccc1/C=C/c1nc2ccccc2c(=O)o1
[out] 83.7

[in] # input molecule: O=C1Nc2ccccc2N(C(=O)c2ccc3ccccc3c2)C1c1nc2ccccc2[nH]1 (stereo unspecified) ; wanted: its activity
[out] 48.1

[in] Name the recorded activity for COc1ccc(-c2cc3cc4c(cc3cn2)OCO4)cc1 .
[out] 60.3

[in] What value of activity has been recorded for this entry: CCc1ccc(C(=O)Nc2nnn(CC)n2)cc1
[out] 73.6

* * *

Experiment: Rh110 fluorescence interference by putative Apaf-1 inhibitors, confirmation, artefact control for Apaf-1 inhibitor project, biochemical, 20 µM (AID 504615)
Details: quenched caspase reaction, at 20 µM, stronger effect = higher value
Some of the results follow.
Assay Endpoint: activation (fluorescence interference) (%)
Value expressed in %; do not type the unit.

// known answers, use as guide
In [3]: df
Out[3]:
                                   compound  reading_unit  reported_measurement
0  Cc1ccc(S(=O)(=O)N2CCN(C(=O)c3ccccc3-c3nc4ccccc4s3)CC2)c(C)c1             %                  4.66
1  O=C(Cc1cc(=O)[nH][nH]1)N/N=C/c1ccccc1[N+](=O)[O-]             %                  0.43
2             Nc1ccc2nn(-c3ccc(Cl)cc3)nc2c1             %                  0.47
3  CCN(CC(=O)NCc1cccs1)C(=O)c1cccc(S(=O)(=O)Nc2ccccc2OC)c1             %                 -3.02
4  CCCCNC(=O)C(C)N(CCN(C)C)C(=O)CCCCCN1C(=O)NC(c2ccc(Cl)cc2)C(C(=O)OCc2ccccc2)=C1C (stereo not given)             %                  -179

[in] Endpoint output: activation (fluorescence interference) of CN(C)S(=O)(=O)c1ccc2oc(SCC(=O)Nc3ccccc3F)nc2c1 . Value?
[out] 10.6

[in] # activation (fluorescence interference) lookup, item C(=N/Nc1cc(N2CCOCC2)nc(N2CCOCC2)n1)/c1ccccc1
[out] 2.85

[in] # activation (fluorescence interference) lookup, item CCn1cc(CN2CCC(C(=O)Nc3cccc(-c4cccc(Cl)c4)c3)CC2)c(C)n1
[out] 5.12

[in] Please report the recorded activation (fluorescence interference) for CCN(CC)CCOc1ccc2c(c1)C(=NNC(=O)c1ccccn1)c1cc(OCCN(CC)CC)ccc1-2 .
[out] 15.8

[in] Field request: activation (fluorescence interference) | item: O=C1Nc2ccc([N+](=O)[O-])cc2C1=Nc1cccc(CO)c1
[out] -4.07

* * *

Test: luciferase luminescence interference by compounds, confirmation, artefact control for SENP inhibitor project, biochemical, single concentration, SENP8 reaction pre-completed (AID 488919);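 also: plate controls were DMSO wells with completed reaction for no effect and substrate without enzyme for full effect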
Conditions: Pre-incubated SENP8/Z-RLRGG-aminoluciferin, at 12.5 µM
This is one part of the list. The source made the active and inactive calls.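 The calls were made as follows: active = mean inhibition above about 50% when retested at one dose (limit read from the data); inactive = the rest.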
Classes to choose from: active, inactive

Example entries and their recorded answers appear below.
In [3]: df
Out[3]:
                                   compound  class_assignment
0     Cc1cc(NC(=O)Nc2ccccc2[N+](=O)[O-])no1          inactive
1      Nc1[nH][nH]c(=O)c1N=Nc1ccc2c(c1)OCO2          inactive
2  COc1ccc(CNC(=O)COc2ccccc2C(=O)c2cnn(-c3ccccc3)c2)cc1OC            active

In the following, a different compound is considered.
[in] Entry C/C(=C\C(=O)c1ccccc1)Nc1cccc(O)c1 : call = ?
[out] active

* * *

Parameter inhibition: see the listing below.
System: Rat fibroblasts (CREF)
Assay: Peg3 promoter luciferase inhibitors, potency, dose response, cell-based, HeLa, CREF/GAPDH counter-screen panel (AID 624167)
Details: CREF/GAPDH counter-screens; run 1, dose range 1, at 100 µM (top of the series)
Record the value in %, omitting the unit from your answer.

                                   compound  reading_unit  reported_measurement
0  OCC1OC(n2ccc3c(NO)ncnc32)C(O)C1O (centres undefined)             %                  95.4
1  CN(C)CC1CCC/C(=C\c2ccc(OC(=O)c3ccc(Cl)cc3)cc2)C1=O (centres undefined)             %                  51.4
2   COc1cc(Nc2c3ccccc3nc3ccccc23)cc(OC)c1OC             %                  92.9
3  CCCC(=O)NC(c1ccc(OC)cc1)c1ccc2cccnc2c1O (centres undefined)             %                  28.1
4    CC(C)CC(=NNC(=O)c1ccncc1)c1cc(Cl)ccc1O             %                  73.9

[in] // lookup inhibition for Brc1ccc(N/N=C(/N=Nc2nn[nH]n2)c2ccccc2)cc1
[out] 75.7

[in] Recorded inhibition for O=c1cnnc(N/N=C/c2ccccn2)[nH]1 , please?
[out] 49.4

[in] I'd like to know its inhibition. The compound in question is C(=N\Nc1nc2ccccc2[nH]1)/c1ccccn1
[out] 93.7

[in] Return reported inhibition; argument: O=C(CCl)Nc1ccccc1Sc1ccc(Cl)cc1
[out] 99.4

[in] For the compound O=c1cc(-c2ccc(O)cc2)oc2ccc3ccccc3c12 , what inhibition is on record?
[out] 98.1

[in] Need inhibition of CCn1nc(C)cc1-c1nnc(Sc2ncc([N+](=O)[O-])s2)n1C , thanks.
[out] 99.4

[in] # lookup: inhibition of CC1=NOC(=O)/C1=C\c1ccc(-c2ccccc2Br)o1
[out] 94.2

[in] Which inhibition reading was recorded for the compound O=C(N/N=C\c1c(O)ccc2ccccc12)c1ccc(Cn2cccn2)o1 ?
[out] 51.2

[in] Quick check: inhibition of Nc1nonc1-n1nnc(C(=O)N/N=C/c2cc(Br)ccc2O)c1CNc1ccccc1 ?
[out] 54.5

[in] Can you look up the measured inhibition of CN(C)c1ccc(Nc2nc(N)c3ccccc3n2)cc1 for me?
[out] 97.2

[in] Which measured inhibition value corresponds to CN(C)c1c([N+](=O)[O-])cc(N2C(=O)C=CC2=O)cc1[N+](=O)[O-] ?
[out] 101

[in] For the compound O=C(O)c1cccc(COc2ccccc2Cl)c1 , what inhibition is on record?
[out] 97

[in] Value lookup for inhibition; key = O=C(NC1=NCCS1)C1COc2ccccc2O1 (centres undefined)
[out] 86.9

[in] Look up inhibition for this compound: COc1ccc(/C=C2\SC(=S)N(CCCC(=O)NNC(=O)c3ccccc3O)C2=O)cc1
[out] 23.4

[in] Return reported inhibition; argument: Cc1c([N+](=O)[O-])cc(N2C(=O)C=CC2=O)cc1[N+](=O)[O-]
[out] 99.5

[in] Dear colleague, I am looking for the recorded inhibition of the following compound: CCCOc1ccc2cc(-c3ccccn3)c(=O)oc2c1
[out] 96.1

[in] Look at this compound and give its reported inhibition. Cc1ccc(-c2cc3c(N=O)c4ccccc4c-3n[nH]2)cc1
[out] 87.3

[in] Recorded inhibition of C(=NN1CCCCCC1)c1ccc2ccccc2n1 , please.
[out] 101

[in] I'd like to know its inhibition. The compound in question is O=c1c2ccccc2cnn1-c1nc2ccccc2[nH]1
[out] 101
